Assay Notes: Whole blood concentrations after IP administration to mice (LC-MS/MS)
Assay type: in vivo
Run Conditions: mouse, whole blood, intraperitoneal, 10 mg/kg, 10 mg/kg IP QD x 3 days; Day 3, 1.00 hrs; Animal ID 4-6; read-out: Concentration in Mouse Whole Blood, individual animals
Parameter Measured: concentration at 1 h (ng/mL)
Just the number please, in ng/mL, no unit attached.

Q: Give reported concentration at 1 h value for CO[C@H]1C[C@@H]2CC[C@@H](C)[C@@](O)(O2)C(=O)C(=O)N2CCCC[C@H]2C(=O)O[C@H]([C@H](C)C[C@@H]2C[C@@H]3C[C@H]2C[C@H]3O)CC(=O)[C@H](C)/C=C(\C)[C@@H](O)[C@@H](OC)C(=O)[C@H](C)C[C@H](C)/C=C/C=C/C=C/1C [Formula I, 37R-hydroxynorbornylrapamycin]
A: 2890
